From: ChEMBL document CHEMBL4190336

// reported pIC50 for each item listed
TARGET ENTITY: PI3-kinase p110-delta/p85-alpha (Homo sapiens, UniProt O00329)
Sequence (P27986 whole entry): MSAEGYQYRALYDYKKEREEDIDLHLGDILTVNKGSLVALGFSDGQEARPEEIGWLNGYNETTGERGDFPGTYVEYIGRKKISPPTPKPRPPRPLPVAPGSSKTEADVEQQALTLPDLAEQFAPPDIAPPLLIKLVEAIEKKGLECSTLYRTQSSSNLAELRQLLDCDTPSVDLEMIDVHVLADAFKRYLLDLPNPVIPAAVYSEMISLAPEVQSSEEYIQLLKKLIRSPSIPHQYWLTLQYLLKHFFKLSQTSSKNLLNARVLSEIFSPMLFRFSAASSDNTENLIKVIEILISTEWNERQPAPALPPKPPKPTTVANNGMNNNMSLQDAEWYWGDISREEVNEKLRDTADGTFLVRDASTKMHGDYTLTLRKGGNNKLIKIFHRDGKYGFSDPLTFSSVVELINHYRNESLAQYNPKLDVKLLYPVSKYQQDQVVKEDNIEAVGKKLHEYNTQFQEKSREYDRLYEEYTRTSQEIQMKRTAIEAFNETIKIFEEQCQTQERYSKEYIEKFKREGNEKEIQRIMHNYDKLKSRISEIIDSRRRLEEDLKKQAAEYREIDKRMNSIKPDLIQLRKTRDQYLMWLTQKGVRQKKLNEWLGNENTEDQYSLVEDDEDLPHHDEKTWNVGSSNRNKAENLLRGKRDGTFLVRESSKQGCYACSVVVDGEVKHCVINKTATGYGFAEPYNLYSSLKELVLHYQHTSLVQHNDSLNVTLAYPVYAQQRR
Sequence (O00329 whole entry): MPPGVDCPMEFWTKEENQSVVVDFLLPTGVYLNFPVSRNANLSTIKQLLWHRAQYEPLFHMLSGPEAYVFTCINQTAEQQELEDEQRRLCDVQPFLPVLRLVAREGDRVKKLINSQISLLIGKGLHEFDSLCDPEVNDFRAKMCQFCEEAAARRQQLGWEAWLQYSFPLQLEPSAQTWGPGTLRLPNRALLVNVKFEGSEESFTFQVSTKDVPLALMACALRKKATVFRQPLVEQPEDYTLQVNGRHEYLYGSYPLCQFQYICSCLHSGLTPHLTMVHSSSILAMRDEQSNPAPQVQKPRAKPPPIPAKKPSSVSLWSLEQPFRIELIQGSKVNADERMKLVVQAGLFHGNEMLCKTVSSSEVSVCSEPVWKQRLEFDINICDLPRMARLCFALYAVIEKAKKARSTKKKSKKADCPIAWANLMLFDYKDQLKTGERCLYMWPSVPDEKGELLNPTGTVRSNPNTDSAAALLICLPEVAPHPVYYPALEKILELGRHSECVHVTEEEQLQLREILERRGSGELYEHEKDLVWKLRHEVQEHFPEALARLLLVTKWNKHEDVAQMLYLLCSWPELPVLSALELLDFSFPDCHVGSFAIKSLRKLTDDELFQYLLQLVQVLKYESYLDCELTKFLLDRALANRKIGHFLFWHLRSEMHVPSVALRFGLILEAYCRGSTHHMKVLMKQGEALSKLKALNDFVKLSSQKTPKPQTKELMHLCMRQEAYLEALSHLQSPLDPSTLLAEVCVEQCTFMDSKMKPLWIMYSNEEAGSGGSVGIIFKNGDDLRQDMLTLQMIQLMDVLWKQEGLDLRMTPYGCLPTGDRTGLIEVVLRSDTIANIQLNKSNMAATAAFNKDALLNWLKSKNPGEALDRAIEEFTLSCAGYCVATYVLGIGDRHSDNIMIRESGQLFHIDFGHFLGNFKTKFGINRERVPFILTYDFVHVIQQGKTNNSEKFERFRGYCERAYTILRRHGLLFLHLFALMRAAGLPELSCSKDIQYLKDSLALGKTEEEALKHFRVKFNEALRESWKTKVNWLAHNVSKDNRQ
ASSAY PROTOCOL: Inhibition of recombinant human full length His-tagged PI3K p110delta/p85alpha expressed in baculovirus expression system using PIP2/PS as substrate after 1 hr by ADP-Glo luminescence assay
pIC50: −log10 of the molar value.
EXPERIMENTAL ENDPOINT: pIC50

* O=S(=O)(Nc1cc(-c2cnc3[nH]ccc3c2)cnc1Cl)c1ccccc1 | 9.00
* O=S(=O)(Nc1cc(-c2cnc3[nH]cc(-c4ccccc4)c3c2)cnc1Cl)c1ccccc1 | 9.00
* O=S(=O)(Nc1cc(-c2cnc3[nH]cc(-c4ccncc4)c3c2)cnc1Cl)c1ccccc1 | 9.22
* O=S(=O)(Nc1cc(-c2cnc3[nH]cc(-c4ccncc4)c3c2)cnc1Cl)c1ccccc1F | 9.30
* O=S(=O)(Nc1cc(-c2cnc3[nH]ncc3c2)cnc1Cl)c1ccccc1 | 9.00
* O=S(=O)(Nc1cc(-c2cnc3[nH]nc(-c4ccccc4)c3c2)cnc1Cl)c1ccccc1 | 9.00
* O=S(=O)(Nc1cc(-c2cnc3[nH]cc(-c4ccncc4)c3c2)cnc1Cl)c1ccc(F)cc1 | 9.40
* O=S(=O)(Nc1cc(-c2cnc3[nH]nc(-c4ccncc4)c3c2)cnc1Cl)c1ccccc1 | 9.15
